# Tested on: G-361
# assay-explanation: Cytotoxicity in human G361 cells assessed as reduction in cell viability incubated for 72 hrs by calcein AM cytotoxicity assay
# Assay type: functional, cell-based
# assay-conditions: Homo sapiens, G-361, 72 h
pIC50: −log10 of the molar value.

# smiles-data, comparator, pIC50
measured = [
    ("CC(C)[C@@H]1CC[C@]2(C(=O)OCCBr)CC[C@]3(C)[C@H](CC[C@@H]4[C@@]5(C)CC[C@H](O)C(C)(C)[C@@H]5CC[C@]43C)[C@@H]12", "=", 4.37),
    ("CC(C)[C@@H]1CC[C@]2(C(=O)OCC(=O)O)CC[C@]3(C)[C@H](CC[C@@H]4[C@@]5(C)CC[C@H](O)C(C)(C)[C@@H]5CC[C@]43C)[C@@H]12", "<", 4.30),
    ("COCCOC(=O)[C@]12CC[C@@H](C(C)C)[C@@H]1[C@H]1CC[C@@H]3[C@@]4(C)CC[C@H](O)C(C)(C)[C@@H]4CC[C@@]3(C)[C@]1(C)CC2", "=", 4.41),
    ("CC(=O)O[C@H]1CC[C@]2(C)[C@H]3CC[C@@H]4C5=C(C(C)C)C(=O)C[C@]5(C(=O)OCCN5CCOCC5)CC[C@@]4(C)[C@]3(C)CC[C@H]2C1(C)C", "=", 5.15),
    ("CC(C)[C@@H]1CC[C@]2(C(=O)OCCN3CCCC3)CC[C@]3(C)[C@H](CC[C@@H]4[C@@]5(C)CC[C@H](O)C(C)(C)[C@@H]5CC[C@]43C)[C@@H]12", "=", 5.09),
    ("CC(C)[C@@H]1CC[C@]2(C(=O)O[C@@H]3O[C@H](CO)[C@@H](O)[C@H](O)[C@H]3O)CC[C@]3(C)[C@H](CC[C@@H]4[C@@]5(C)CC[C@H](O)C(C)(C)[C@@H]5CC[C@]43C)[C@@H]12", "<", 4.30),
    ("C=C(C)[C@@H]1CC[C@]2(C(=O)O[C@@H]3O[C@H](COC(C)=O)[C@H](OC(C)=O)[C@H](OC(C)=O)[C@H]3OC(C)=O)CC[C@]3(C)[C@H](CC[C@@H]4[C@@]5(C)CC[C@H](O)C(C)(C)[C@@H]5CC[C@]43C)[C@@H]12", "=", 5.47),
    ("COCCOCCOC(=O)[C@]1(COC(C)=O)CC[C@]2(C)[C@H](CC[C@@H]3[C@@]4(C)CC[C@H](OC(C)=O)C(C)(C)[C@@H]4CC[C@]32C)C1=O", "<", 4.30),
    ("COCCOC(=O)[C@]1(COC(C)=O)CC[C@]2(C)[C@H](CC[C@@H]3[C@@]4(C)CC[C@H](OC(C)=O)C(C)(C)[C@@H]4CC[C@]32C)C1=O", "<", 4.30),
    ("CC(C)[C@@H]1CC[C@]2(C(=O)OCCN3CCCCC3)CC[C@]3(C)[C@H](CC[C@@H]4[C@@]5(C)CC[C@H](O)C(C)(C)[C@@H]5CC[C@]43C)[C@@H]12", "=", 4.49),
    ("C=C(C)[C@@H]1CC[C@]2(C(=O)OCCOC)CC[C@]3(C)[C@H](CC[C@@H]4[C@@]5(C)CC[C@H](O)C(C)(C)[C@@H]5CC[C@]43C)[C@@H]12", "=", 4.52),
    ("CC(=O)OC[C@@]1(C(=O)OCCBr)CC[C@]2(C)[C@H](CC[C@@H]3[C@@]4(C)CC[C@H](OC(C)=O)C(C)(C)[C@@H]4CC[C@]32C)C1=O", "<", 4.30),
    ("CC(=O)OC[C@@]1(C(=O)OCCN2CCCC2)CC[C@]2(C)[C@H](CC[C@@H]3[C@@]4(C)CC[C@H](OC(C)=O)C(C)(C)[C@@H]4CC[C@]32C)C1=O", "=", 4.69),
    ("CC(=O)O[C@H]1CC[C@]2(C)[C@H]3CC[C@@H]4C5=C(C(C)C)C(=O)C[C@]5(C(=O)OCCN5CCCC5)CC[C@@]4(C)[C@]3(C)CC[C@H]2C1(C)C", "=", 5.19),
]
